system: Mycolicibacterium smegmatis; experiment: Antimicrobial activity against Mycobacterium smegmatis incubated for 18 hrs by Alamar blue assay; type: functional
measure: MIC90 (µg/mL)

Recorded MIC90, per entry:
>>> df
                                   compound  measure  unit_label  observed_result
0  CCCCCCCCCCNS(=O)(=O)N[C@H]1OC[C@@H](O)[C@@H](O)[C@@H]1O    MIC90       µg/mL               62
1  CCCCCCCCN(CCCCCCCC)S(=O)(=O)N[C@H]1OC[C@@H](O)[C@@H](O)[C@@H]1O    MIC90       µg/mL              500

(I) CCCCCCCCCCNS(N)(=O)=O
(II) CC(C)CCCC(C)CCNS(=O)(=O)N[C@H]1OC[C@@H](O)[C@@H](O)[C@@H]1O (stereo partly specified)
IN: Hi, I'm comparing I with II and wondering which one has the bigger number for MIC90. Any idea? Provide the label of your selected option as the answer.
OUT: I

---

tested on: Mycolicibacterium smegmatis; test: Antimicrobial activity against Mycobacterium smegmatis incubated for 18 hrs by Alamar blue assay; assay type: functional
measure: MIC90 (µg/mL)

Recorded MIC90, per entry:
>>> print(df.to_string())
                            smiles_notation  measure  observed_result
0  CCCCCCCCNS(=O)(=O)N[C@H]1OC[C@@H](O)[C@@H](O)[C@@H]1O    MIC90              500
1  CCCCCCCCCCCCNS(=O)(=O)N[C@H]1OC[C@@H](O)[C@@H](O)[C@@H]1O    MIC90              250

(I) NNC(=O)c1ccncc1
(II) CCCCCCN(CCCCCC)S(=O)(=O)N[C@H]1OC[C@@H](O)[C@@H](O)[C@@H]1O
IN: Hi, I'm comparing I with II and wondering which one has the bigger number for MIC90. Any idea? Provide the label of your selected option as the answer.
OUT: II

---

system: Mycolicibacterium smegmatis; assay: Antimicrobial activity against Mycobacterium smegmatis incubated for 18 hrs by Alamar blue assay; assay type: functional
measure: MIC90

Recorded MIC90, per entry:
                            smiles_notation  observed_result
0  CCCCCCNS(=O)(=O)N[C@H]1OC[C@@H](O)[C@@H](O)[C@@H]1O     > 1000 µg/mL
1  O=S(=O)(NCCOCCOCCOCCO)N[C@H]1OC[C@@H](O)[C@@H](O)[C@@H]1O     > 1000 µg/mL
2  CCCCCCCCCCCCCCNS(=O)(=O)N[C@H]1OC[C@@H](O)[C@@H](O)[C@@H]1O     > 1000 µg/mL
3  CCCCCCCCCCCCN(CCCCCCCCCCCC)S(=O)(=O)N[C@H]1OC[C@@H](O)[C@@H](O)[C@@H]1O     > 1000 µg/mL

Note: attention shifts to another entry.
IN: # lookup: MIC90 of `O=S(=O)(NCCOCCO)N[C@H]1OC[C@@H](O)[C@@H](O)[C@@H]1O`
OUT: > 1000 µg/mL
